- target-under-test: T1, IL-18 receptor (IL-18Rαβ) on cells (UniProt Q13478 19-541; O95256 20-599, limits assumed)
- T1 sequence (looked up) 1: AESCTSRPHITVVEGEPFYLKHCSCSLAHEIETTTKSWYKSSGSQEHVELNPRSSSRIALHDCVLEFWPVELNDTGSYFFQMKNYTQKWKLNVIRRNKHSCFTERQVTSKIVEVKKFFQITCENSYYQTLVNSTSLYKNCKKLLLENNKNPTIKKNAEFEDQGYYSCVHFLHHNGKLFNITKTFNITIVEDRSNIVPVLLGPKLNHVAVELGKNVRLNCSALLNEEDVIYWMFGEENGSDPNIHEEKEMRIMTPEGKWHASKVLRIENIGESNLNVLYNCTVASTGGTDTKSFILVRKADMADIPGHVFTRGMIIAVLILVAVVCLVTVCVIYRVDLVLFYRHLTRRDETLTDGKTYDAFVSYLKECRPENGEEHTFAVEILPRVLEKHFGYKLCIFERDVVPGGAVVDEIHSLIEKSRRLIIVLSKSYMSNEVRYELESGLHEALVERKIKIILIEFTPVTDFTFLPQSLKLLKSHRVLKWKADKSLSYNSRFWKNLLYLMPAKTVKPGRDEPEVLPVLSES
- T1 sequence (looked up) 2: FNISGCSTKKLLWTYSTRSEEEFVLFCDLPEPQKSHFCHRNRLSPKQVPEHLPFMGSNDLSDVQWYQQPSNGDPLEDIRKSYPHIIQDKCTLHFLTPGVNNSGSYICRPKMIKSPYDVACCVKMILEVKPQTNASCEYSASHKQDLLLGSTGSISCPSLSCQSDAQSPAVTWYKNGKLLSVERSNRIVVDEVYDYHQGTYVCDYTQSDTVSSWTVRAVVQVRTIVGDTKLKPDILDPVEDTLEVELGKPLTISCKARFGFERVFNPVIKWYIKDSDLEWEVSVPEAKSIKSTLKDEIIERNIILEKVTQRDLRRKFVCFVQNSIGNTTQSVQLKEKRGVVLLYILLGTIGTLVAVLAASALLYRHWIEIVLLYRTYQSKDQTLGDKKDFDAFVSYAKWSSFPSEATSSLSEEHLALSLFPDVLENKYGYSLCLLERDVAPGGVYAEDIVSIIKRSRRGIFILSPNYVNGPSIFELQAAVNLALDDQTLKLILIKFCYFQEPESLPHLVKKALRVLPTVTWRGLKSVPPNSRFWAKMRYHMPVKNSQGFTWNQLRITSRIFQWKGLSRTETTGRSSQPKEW
- test-summary: cell-based or functional assay
quantity-name: EC50 (IFNγ stimulation, NK92) (pM)
Form entry: value (pM) — number only.

Worked examples follow.
binder	numeric-readout
C151 (ligand) YFGKLESKLSIIRNLNDQVLFIDQGNRPLFEDMTASDARDNAPRTIFIISMYADSQPRGMAVTISVKCEKISTLSAENKIISFKEMNPPDNIKDTKSDIIFFQRSVPGHDNKMQFESSSYEGYFLAAEKERDLFKLILKKEDELGDRSIMFTVQNED	61
SEQ ID NO 4 (ligand) YFGKLKSKLSVIRNLNDQVLFIDQGNRPLFEDMTDSDARDNAPRTIFIISMYADSQPRGMAVTISVKAEKISTLSCENKIISFKECNPPDNIKDTKSDIIFFQRSVPGHDNKMQFESSSYEGYFLACEKERDLFKLILKKEDELGDRSIMFTVQNED	22
SEQ ID NO 59 (ligand) YFGKLKSKLSVIRNLNDQVLFIDQGNRPLFEDMTDSDARDNAPRTIFIISMYADSQPRGMAVTISVKCEKISTLSCENKIISFKEMNPPDNIKDTKSDIIFFQRSVPGHDNKMQFESSSYEGYFLACEKERDLFKLILKKEDELGDRSIMFTVQNED	15

Task item: EC50 (IFNγ stimulation, NK92) for C149 (ligand) YFGKLESKLSIIRNLNDQVLFIDQGNRPLFADMTDSDARDNAPRTIFIISMYADSQPRGMAVTISVKCEKISTLSAENKIISFKEMNPPDNIKDTKSDIIFFQRSVPGHDNKMQFESSSYEGYFLAAEKERDLFKLILKKEDELGDRSIMFTVQNED ?
Reply: 187

Task item: # iterate: C148 (ligand) YAGKLESKLSIIRNLNDQVLFIDQGNRPLFEDMTDSDARDNAPRTIFIISMYADSQPRGMAVTISVKCEKISTLSAENKIISFKEMNPPDNIKDTKSDIIFFQRSVPGHDNKMQFESSSYEGYFLAAEKERDLFKLILKKEDELGDRSIMFTVQNED
Reply: 256
